From: ChEMBL document CHEMBL3885861

Reported TBIL values for a set of molecules
Species: Rattus norvegicus
Assay: Open TG-GATES - Regimen: Single
Assay type: toxicity, organism-based, Sprague-Dawley
Parameters: regimen Single, gender Male, age 6 weeks
Conditions: in vivo, po, 1000 mg/kg, 3 h, tissue Plasma, route gavage, dose level High
Give a bare numeral; the unit mg/dL is implied.

// known answers, use as guide
CC(C)OC(=O)C(C)(C)Oc1ccc(C(=O)c2ccc(Cl)cc2)cc1 [FENOFIBRATE] :: 0.062
COC1=CC(=O)C[C@@H](C)[C@]12Oc1c(Cl)c(OC)cc(OC)c1C2=O :: 0.3
NC(N)=Nc1nc(CSCCC(N)=NS(N)(=O)=O)cs1 :: 0.1
CCOC(=O)CCC(=O)O[C@H]1[C@H](O[C@@H]2[C@@H](C)[C@H](O[C@H]3C[C@@](C)(OC)[C@@H](O)[C@H](C)O3)[C@@H](C)C(=O)O[C@H](CC)[C@@](C)(O)[C@H](O)[C@@H](C)C(=O)[C@H](C)C[C@@]2(C)O)O[C@H](C)C[C@@H]1N(C)C [ERYTHROMYCIN ETHYLSUCCINATE] :: 0.05

Provide TBIL value for the following molecule: COc1ccc2[nH]c([S+]([O-])Cc3ncc(C)c(OC)c3C)nc2c1 (stereo not given)
0.1
